Let's go through some recorded log10 IC50 values for Dyrk1B (Homo sapiens, UniProt Q9Y463) together.
assay-endpoint: log10 IC50 (log10 of the value in nM)

>>> observed_result("Cc1ccc(-c2csc(-c3cccnc3)c2)cn1 [Compound 7]")
3.53
>>> observed_result("Nc1cc(-c2csc(-c3cccnc3)c2)cnc1Cl [Compound 23]")
3.15
>>> observed_result("Cc1cncc(-c2csc(-c3cnco3)c2)c1 [Compound 35]")
3.04
>>> observed_result("c1cncc(-c2csc(-c3cncnc3)c2)c1 [Compound 41]")
3.26
>>> observed_result("CC(=O)c1cncc(-c2csc(-c3cccnc3)c2)c1 [Compound 17]")
3.04
>>> observed_result("Clc1cncc(-c2csc(-c3cccnc3)c2)c1 [Compound 16]")
3.28
>>> observed_result("COC(=O)c1cncc(-c2csc(-c3cccnc3)c2)c1 [Compound 18]")
3.23
>>> observed_result("c1cncc(-c2csc(-c3cncs3)c2)c1 [Compound 48]")
1.85
>>> observed_result("c1ncc(-c2cc(-c3cn[nH]c3)cs2)o1 [Compound 38]")
3.34
>>> observed_result("Cc1cncc(-c2csc(-c3cccnc3)c2)c1 [Compound 5]")
3.08
>>> observed_result("Cc1cncc(-c2csc(-c3cncnc3)c2)c1 [Compound 43]")
3.34

---

tested-system: MST1 (STK4) (Homo sapiens, UniProt Q13043)
Construct: purchased Life Technologies (Invitrogen SelectScreen); Dyrk1A, Dyrk2 and CK2α in-house or gifts
Sequence (Q13043 whole entry): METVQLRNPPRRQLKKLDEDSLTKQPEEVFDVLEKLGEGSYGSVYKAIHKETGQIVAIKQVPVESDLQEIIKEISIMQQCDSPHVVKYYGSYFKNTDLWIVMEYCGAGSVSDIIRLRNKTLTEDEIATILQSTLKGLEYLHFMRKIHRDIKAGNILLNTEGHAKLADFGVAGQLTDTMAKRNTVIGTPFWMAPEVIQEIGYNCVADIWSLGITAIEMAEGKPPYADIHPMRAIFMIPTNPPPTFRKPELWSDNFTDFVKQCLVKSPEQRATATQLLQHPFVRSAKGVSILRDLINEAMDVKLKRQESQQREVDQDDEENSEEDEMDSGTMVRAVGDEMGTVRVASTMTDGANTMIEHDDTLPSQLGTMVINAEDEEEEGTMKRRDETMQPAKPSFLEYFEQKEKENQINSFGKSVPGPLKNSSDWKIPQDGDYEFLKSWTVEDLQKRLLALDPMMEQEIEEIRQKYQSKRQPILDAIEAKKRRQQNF
experimental-protocol: Selectivity panel MST1
Format: biochemical
condition-details: 5 µM inhibitor
assay-endpoint: inhibition at 5 µM

>>> observed_result("c1cncc(-c2csc(-c3cnco3)c2)c1")
"0%"
>>> observed_result("Cn1cc(-c2csc(-c3cccnc3)c2)cn1")
"-10%"
>>> observed_result("c1cncc(-c2csc(-c3cncnc3)c2)c1")
"2%"
>>> observed_result("c1cncc(-c2cc(-c3cncs3)cs2)c1")
"0%"
>>> observed_result("c1cncc(-c2csc(-c3cncs3)c2)c1")
"9%"

---

experimental-protocol: Determination of logP, pka and logS (Sirius T3)
Assay type: physicochemical
condition-details: Experimental; read-out: pka1
assay-endpoint: pKa

>>> observed_result("c1cncc(-c2csc(-c3cccnc3)c2)c1")
3.48

---

In this section we review reported inhibition at 5 µM values for a set of molecules.
tested-system: PRKD2 (PKD2) (Homo sapiens)
Construct: purchased Life Technologies (Invitrogen SelectScreen); Dyrk1A, Dyrk2 and CK2α in-house or gifts
Sequence (Q9BZL6 whole entry): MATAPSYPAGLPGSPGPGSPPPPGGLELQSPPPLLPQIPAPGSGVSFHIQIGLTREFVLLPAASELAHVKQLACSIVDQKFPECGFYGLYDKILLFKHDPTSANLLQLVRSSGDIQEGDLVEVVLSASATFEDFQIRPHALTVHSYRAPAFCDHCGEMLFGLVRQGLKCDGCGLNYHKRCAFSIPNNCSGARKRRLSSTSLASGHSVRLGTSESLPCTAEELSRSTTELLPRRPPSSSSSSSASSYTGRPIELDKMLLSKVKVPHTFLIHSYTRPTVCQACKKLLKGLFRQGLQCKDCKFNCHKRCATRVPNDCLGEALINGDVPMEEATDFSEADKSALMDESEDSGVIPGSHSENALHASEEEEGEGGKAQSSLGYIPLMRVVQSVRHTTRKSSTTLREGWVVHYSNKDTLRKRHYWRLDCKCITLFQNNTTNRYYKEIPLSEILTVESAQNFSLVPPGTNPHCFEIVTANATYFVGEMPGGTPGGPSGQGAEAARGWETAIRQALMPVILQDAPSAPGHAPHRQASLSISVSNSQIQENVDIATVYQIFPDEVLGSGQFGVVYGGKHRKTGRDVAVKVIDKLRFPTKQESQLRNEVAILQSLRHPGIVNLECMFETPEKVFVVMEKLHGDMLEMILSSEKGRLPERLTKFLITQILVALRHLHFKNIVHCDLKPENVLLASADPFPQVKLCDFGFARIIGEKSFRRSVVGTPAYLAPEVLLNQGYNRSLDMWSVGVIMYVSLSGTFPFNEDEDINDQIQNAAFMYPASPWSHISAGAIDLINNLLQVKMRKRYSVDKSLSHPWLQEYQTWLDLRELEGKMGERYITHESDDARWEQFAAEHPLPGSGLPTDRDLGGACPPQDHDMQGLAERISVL
experimental-protocol: Selectivity panel PRKD2
Assay type: biochemical
condition-details: 5 µM inhibitor
assay-endpoint: inhibition at 5 µM (%)

>>> observed_result("c1cncc(-c2csc(-c3cncnc3)c2)c1")
0
>>> observed_result("c1cncc(-c2cc(-c3cncs3)cs2)c1")
0
>>> observed_result("c1cncc(-c2csc(-c3cncs3)c2)c1")
0
>>> observed_result("Cn1cc(-c2csc(-c3cccnc3)c2)cn1")
-8
>>> observed_result("c1cncc(-c2csc(-c3cnco3)c2)c1")
0

---

experimental-protocol: Metabolic Stability Assay
condition-details: male, Sprague-Dawley, rat, microsomes
assay-endpoint: CLhep predicted at 0.5 µM

>>> observed_result("COc1ccc2c(c1)[nH]c1c(C)nccc12 [Harmine, harmine, reference compound]")
"53 mL/min/kg"

---

experimental-protocol: Determination of logP, pka and logS (Sirius T3)
Format: physicochemical
condition-details: Experimental; read-out: pka2
assay-endpoint: pKa

>>> observed_result("c1cncc(-c2csc(-c3cccnc3)c2)c1 [Compound 4]")
4.8
